# Measurement description: Pharmacokinetic parameters following intravenous and oral administration in dogs
# Format: in vivo, female beagles
# Test context: female, beagle, dog, plasma, intravenous administration (i.v.), read-out: CLplasma (converted)
Counter-ions that a name gives are not always drawn.
Catalogue of compounds with associated clearance

Compound	clearance, mL/min/kg
O=C(O)c1cnn(-c2cccc(-c3cc(Cl)ccc3-c3ccc(N4CCN(CC5CC5)CC4)cc3)n2)c1C(F)(F)F [Comparative Example 174 (WO2012/058132), reference compound]	3.33
CC(C)CN1CCN(c2ccc(-c3ccc(Cl)cc3N3CCCC(n4ncc(C(=O)O)c4C(F)(F)F)C3)cc2)CC1 (single isomer, unassigned) [Example 9, hydrochloride]	0.5
CC(C)CN1CCN(c2ccc(-c3ccc(Cl)cc3N3CCC[C@@H](n4ncc(C(=O)O)c4C(F)F)C3)cc2)CC1 (single isomer, unassigned)	0.167
